B1: TPR 5TU (parent)
chain: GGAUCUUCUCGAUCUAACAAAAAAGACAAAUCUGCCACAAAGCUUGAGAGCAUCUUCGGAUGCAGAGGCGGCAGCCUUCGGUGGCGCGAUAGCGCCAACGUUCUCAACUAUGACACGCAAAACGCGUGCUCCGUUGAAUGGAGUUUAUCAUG

variants of: B1; experiment: polymerase ribozyme fitness, log enrichment relative to wild type (log ratio); higher = more active; in vitro selection for triplet polymerase activity
Fewer inactive variants are shown than the library holds.
Here, each record is paired with measured polymerase ribozyme fitness (log ratio) data.
// print number alone

These solved cases illustrate the format of a correct answer.
C14G A106C C118A C123U    -4.16
C79A G83A    -3.78
A20G A73G C85A    -2.05
C118U U148G    -3.62
U61A C87U    -2.83
G58A U145G    0.851
C76U A89G    -1.03
C93U C131A    -2.97
C14U C93A    -3.4
U44A C76U    -4.19

Problem: Note polymerase ribozyme fitness (log ratio) for the variant shown: A37C G92A U146G
Result: -4.01

Problem: Report polymerase ribozyme fitness (log ratio), nothing else, for this variant: C87U A115U
Result: -1.73

Problem: Given the variant G48U U82G C96G , write its reported polymerase ribozyme fitness (log ratio).
Result: -1.48
